# EXPERIMENTAL_TARGET: T1, CH505.TF mutant gp120 M6 (HIV-1)
# T1 construct: domain: gp120
# METHOD_SUMMARY: ELISA
Provide the recorded LogAUC for the entries that follow.
// no unit, no text: just the number

What the record says about CH555 (antibody, V domains shown, also called CH235.10) VH: QVQLVQSGATVKKPRASVTLSCRTSGYNFIDYFIHWVRRAPGQRLEVMGYIDPSRGRPDYAPNFRDRVSLYRDTSMSIVYLDLRDLTPDDTAIYYCVRSEGTEGTVLHYDHWGPGTRVTVSP VL: EIVLTQSPDTLSASPGERVTLSCRASQSVGTKVAWYRHVRGQPPRLLIYGASTRAAGIPARFSGGGSGTNFTLIINNFQSEDFAEYLCQQYKSWWTFGQGTKVDNK : LogAUC is 5.67

What the record says about CH235.13 (antibody, V domains shown) VH: QVQLVQSGGGVKRPGSTTTISCVASGYSFNDYYIHWVRQAPGQGLEVLGFIDPSNGRTNYAGAFGDRFSMYRDKSMETLYMDLRNLRSDDTAMYYCVRNVGTAGSLLHYDHWGTGSKIIVSS VL: EIVLTQSPATLSASPGERVTLTCRASRGVRNNVAWYQHNVGQSPRLLIYDASTRAPGIPARFSGSASGTEFTLAISSIQSEDFTLYYCHQYNNWWTFGQGTRVDIN : LogAUC is 6.07

What the record says about CH235 (antibody, V domains shown, also called CH235_4A) VH: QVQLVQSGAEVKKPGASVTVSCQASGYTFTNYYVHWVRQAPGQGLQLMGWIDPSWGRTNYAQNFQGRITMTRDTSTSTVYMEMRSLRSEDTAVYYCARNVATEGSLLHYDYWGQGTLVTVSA VL: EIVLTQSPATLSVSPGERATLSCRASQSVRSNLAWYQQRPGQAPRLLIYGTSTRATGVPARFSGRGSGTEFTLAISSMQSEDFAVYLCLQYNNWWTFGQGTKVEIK : LogAUC is 9.46
